TARGET OR TEST SYSTEM: T1, 4H2389-AA
T1 chain: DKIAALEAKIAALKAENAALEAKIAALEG
MEASUREMENT PROTOCOL: two-hybrid library CCmax;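 note: natural log of median RNA to DNA barcode read ratio; higher means stronger binding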
EXPERIMENTAL PARAMETERS: mean of both orientations
READOUT: interaction score
Reply with just the number.

Using the record for DKIAALEAEIAALEAKNAALKAKIAALEG [4H2109-AA] , report its interaction score.
2.49

Using the record for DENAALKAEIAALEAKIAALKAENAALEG [4H1579-AA] , report its interaction score.
-1.56

Using the record for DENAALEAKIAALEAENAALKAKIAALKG [4H1310-AA] , report its interaction score.
1.17
